Value source: patent US8993575B2

- Experiment Description: in vivo
- Conditions: both sexes, mouse, in vivo; po, single intragastric administration in mice; read-out: LD50
LD50 values, listed per item

Worked set:
COc1ccc(-c2nnc(SCCCN3CCC(c4noc5cc(F)ccc45)CC3)o2)cc1 [Compound 4] | > 2000 mg/kg
Fc1ccc2c(C3CCN(CCCSc4nnc(-c5cccc6ccccc56)o4)CC3)noc2c1 [Compound 12] | > 2000 mg/kg

[in] // returns reported LD50 for input Fc1ccc2c(C3CCN(CCCSc4nnc(-c5ccc(Cl)cc5)o4)CC3)noc2c1 [Compound 6]
[out] > 2000 mg/kg
